Organism: Homo sapiens
testProtocol: Cytotoxicity against the cancer cell lines colon HCT116
Assay type: functional
In plain terms, low GI50, meaning strictly below 3 µM, gives 1, and everything else gives -1.

Q: Please let me know if "C[C@]12CC[C@@H]3c4cc(OCCO)c(O)cc4CC[C@H]3[C@@H]1CC[C@@H]2O" shows GI50 below 3 µM.
Ans: -1

----------
Listing of entries alongside the reported IC50.
subjectOfTest: Tubulin (Bos taurus, UniProt Q6B856+Q862L2+Q862F3)
testProtocol: Inhibition of tubulin polymerization measured at 12 uM tubulin concentration.
Format: protein assay
Report the value in µM with no unit label.

Worked cases, IC50 given:
                                givensmiles   u  observed
0  C[C@]12CC[C@@H]3c4cc(OCCO)c(O)cc4CC[C@H]3[C@@H]1CC[C@@H]2O  µM       9.6
1  C#Cc1cc2c(cc1O)CC[C@@H]1[C@@H]2CC[C@]2(C)[C@@H](O)CC[C@@H]12  µM        13

Let us examine a further case.
Looking up "C[C@]12CC[C@@H]3c4cc(/C=C/CO)c(O)cc4CC[C@H]3[C@@H]1CC[C@@H]2O" , I see its IC50 listed as 6.3

----------
subjectOfTest: Tubulin (Bos taurus, UniProt Q6B856+Q862L2+Q862F3)
testProtocol: Inhibition of tubulin polymerization measured at 12 uM tubulin concentration.
Type: protein assay
Listing of entries alongside the reported IC50.
Report the value in µM with no unit label.

                                givensmiles                             subjectoftest  observed
0  CC#Cc1cc2c(cc1O)CC[C@@H]1[C@@H]2CC[C@]2(C)[C@@H](O)CC[C@@H]12  Tubulin (Bos taurus, UniProt Q6B856+Q862L2+Q862F3)       4.9

Let us examine a further case.
Looking up "COc1cc2c(cc1O)CC[C@@H]1[C@@H]2CC[C@]2(C)[C@@H](O)CC[C@@H]12" , I see its IC50 listed as 4.7

----------
Organism: Homo sapiens
testProtocol: Cytotoxicity against the cancer cell lines colon HCT116
Assay type: functional
In plain terms, low GI50, meaning strictly below 4 µM, gives label 1, and everything else gives label 0.

                                   compound    group
0  C[C@]12CC[C@@H]3c4cc(/C=C/CO)c(O)cc4CC[C@H]3[C@@H]1CC[C@@H]2O  label 1

Q: Please let me know if "C[C@]12CC[C@@H]3c4cc(C#N)c(O)cc4CC[C@H]3[C@@H]1CC[C@@H]2O" shows GI50 below 4 µM.
Ans: label 0

Q: Please let me know if "CC#Cc1cc2c(cc1O)CC[C@@H]1[C@@H]2CC[C@]2(C)[C@@H](O)CC[C@@H]12" shows GI50 below 4 µM.
Ans: label 1

Q: Please let me know if "C[C@]12CC[C@@H]3c4cc(/C=N/CCO)c(O)cc4CC[C@H]3[C@@H]1CC[C@@H]2O" shows GI50 below 4 µM.
Ans: label 0

Q: Please let me know if "CN(C)CC/N=C/c1cc2c(cc1O)CC[C@@H]1[C@@H]2CC[C@]2(C)[C@@H](O)CC[C@@H]12" shows GI50 below 4 µM.
Ans: label 0
